assay: Plasma pharmacokinetics in mice (LC/MS/MS); type: in vivo, Female BALB/c mice; details: female, BALB/c, mouse, plasma, iv; mice, 5 mg kg^−1 i.v., based on the elimination phase; read-out: Vd
measure: Vd (L)
The response must be a number in L with no trailing unit.

Enquiry: # input molecule: O=c1cc(N2CCOCC2)oc2c1ccc1ccccc12 [NU7026, 2-(morpholin-4-yl)-benzo[H]chromen-4-one] ; wanted: its Vd
Return: 0.16

* * *

assay: Plasma pharmacokinetics in mice (LC/MS/MS); format: in vivo, Female BALB/c mice; conditions: female, BALB/c, mouse, plasma, po, 50 mg/kg, mice, 50 mg kg^−1 p.o., noncompartmental
measure: Cmax (nM)
Provide the reading as a plain figure in nM.

Enquiry: Query (molecule): O=c1cc(N2CCOCC2)oc2c1ccc1ccccc12 [NU7026, 2-(morpholin-4-yl)-benzo[H]chromen-4-one] ; field requested: Cmax
Return: 2230

* * *

test: Plasma pharmacokinetics in mice (LC/MS/MS); type: in vivo, Female BALB/c mice; settings: female, BALB/c, mouse, plasma, po, 50 mg/kg, mice, p.o. 50 mg kg^−1 (discussion)
measure: Cmax

Enquiry: Fill blank: measured Cmax of the compound O=c1cc(N2CCOCC2)oc2c1ccc1ccccc12 [NU7026, 2-(morpholin-4-yl)-benzo[H]chromen-4-one] is ____.
Return: < 2500 nM

* * *

assay: Plasma pharmacokinetics in mice (LC/MS/MS); type: in vivo, Female BALB/c mice; conditions: female, BALB/c, mouse, ip; Table 3: each compound at 20 mg kg^−1 i.p. to mice, plasma
measure: half-life (min)
Express it in min; write the number only.

Enquiry: Can you share its half-life? I mean this compound: C[C@@H]1CN(c2cc(=O)n3ccc4ccccc4c3n2)C[C@H](C)O1
Return: 47.4
